test system: Wolbachia pipientis; assay: Anti-Wolbachia Cell-Based Screen; type: functional; parameters: scale not given: in the data most compounds retested in dose-response had high values; conditions: 5 µM
About 13,000 (27%) of roughly 48,000 compounds showed an effect of 50% or more. The list shows a part of the results.
Parameter: Percent Effect. Scope: all listed entries.
Note: state the figure and append the unit.

Check out these entries, answers already filled in.
>  <COMPOUND>
CS(=O)(=O)NC1CCN(C(=O)c2ccc(Br)cc2)C1 (stereo unspecified)

>  <Percent Effect>
2.662%

$$$$
>  <COMPOUND>
CC(NC(=O)Nc1cccnc1N1CCCC1)c1ccccn1 (stereo unspecified)

>  <Percent Effect>
9.094%

$$$$
>  <COMPOUND>
Cc1noc(C)c1CN1CCc2ncnc(-c3cnn(C)c3)c2CC1.O=C(O)C(F)(F)F

>  <Percent Effect>
103.6%

$$$$
>  <COMPOUND>
CCC(=O)N1CCC2(CC1)COc1ccccc1S(=O)(=O)N(C)C2

>  <Percent Effect>
3.45%

$$$$
>  <COMPOUND>
Cc1noc(C)c1CN1CCc2ncnc(-c3cccnc3)c2CC1.O=C(O)C(F)(F)F.O=C(O)C(F)(F)F

>  <Percent Effect>
104.6%

$$$$

Read the next record carefully.
Query string: Could you share which Percent Effect value was measured for CS(=O)(=O)NC1CCCN(C(=O)Nc2cccnc2)C1 (stereo unspecified) ?
Result string: 122.7%

###

system: Wolbachia pipientis; test: Anti-Wolbachia Cell-Based Screen; type: functional; design: scale not given: in the data most compounds retested in dose-response had high values; conditions: 5 µM
Hit rate of the full screen: of about 48,000 compounds, about 13,000 (27%) showed an effect of 50% or more. Some of the results follow.
Listing of recorded Percent Effect by entry.
# number only, unit % dropped from output

Consider the following illustrative entries.
>  <COMPOUND>
CCCc1cncnc1N1CCC(NCc2ccncc2)CC1

>  <REPORTED METRIC>
Percent Effect

>  <VALUE UNIT>
%

>  <EXPERIMENTAL RESULT>
5.564

$$$$
>  <COMPOUND>
COc1ccc(OC)c(C(C)Nc2nc3c(C)nn(C)c3c(=O)n2C)c1 (configuration not stated)

>  <REPORTED METRIC>
Percent Effect

>  <VALUE UNIT>
%

>  <EXPERIMENTAL RESULT>
-10.12

$$$$
>  <COMPOUND>
CCc1nnc2n1CC(CNCc1ccncc1)CC2 (configuration not stated)

>  <REPORTED METRIC>
Percent Effect

>  <VALUE UNIT>
%

>  <EXPERIMENTAL RESULT>
-8.895

$$$$
>  <COMPOUND>
CCn1c(CC2CCN(C(=O)C3CCOC3)CC2)nn(C)c1=O (configuration not stated)

>  <REPORTED METRIC>
Percent Effect

>  <VALUE UNIT>
%

>  <EXPERIMENTAL RESULT>
3.513

$$$$
>  <COMPOUND>
OC1CCCOC12CCN(c1ncccn1)CC2 (configuration not stated)

>  <REPORTED METRIC>
Percent Effect

>  <VALUE UNIT>
%

>  <EXPERIMENTAL RESULT>
8.98

$$$$
>  <COMPOUND>
O[C@H]1CN(Cc2c[nH]nc2-c2ccccc2)CC[C@@]12CCCO2

>  <REPORTED METRIC>
Percent Effect

>  <VALUE UNIT>
%

>  <EXPERIMENTAL RESULT>
151.3

$$$$

Query string: Query: Percent Effect; subject: "O[C@H]1CN(Cc2ccnc(N3CCCC3)n2)CC[C@@]12CCCO2"
Result string: 120.1

###

tested on: Wolbachia pipientis; assay: Anti-Wolbachia Cell-Based Screen; assay type: functional; set-up: scale not given: in the data most compounds retested in dose-response had high values; details: 5 µM
Out of some 48,000 compounds screened, about 13,000 (27%) showed an effect of 50% or more. The list shows a part of the results.
REPORTED METRIC: Percent Effect (%)
Reply with just the number (in %).

>  <COMPOUND>
Cn1cc(-c2c(C#N)c(N)nc3c2CCc2[nH]ccc2-3)cn1

>  <VALUE UNIT>
%

>  <Percent Effect>
4.236

$$$$
>  <COMPOUND>
CCOc1ccc(NC(=O)NC2CCc3[nH]ncc3C2)cn1 (stereo not drawn)

>  <VALUE UNIT>
%

>  <Percent Effect>
-9.557

$$$$
>  <COMPOUND>
CCC(C)Sc1ncc(-c2c(C#N)c(N)nc3c2COCC3)cn1 (stereo not drawn)

>  <VALUE UNIT>
%

>  <Percent Effect>
95.02

$$$$
>  <COMPOUND>
CCOc1ccc(NC2CCN(C3CC3)C2=O)cn1 (stereo not drawn)

>  <VALUE UNIT>
%

>  <Percent Effect>
-7.266

$$$$
>  <COMPOUND>
Cc1cc(-c2c(C)c(-c3cnn(C)c3)nc(N)c2C#N)oc1C

>  <VALUE UNIT>
%

>  <Percent Effect>
17.25

$$$$
>  <COMPOUND>
c1cc(-c2n[nH]cc2-c2ccnc(N3CCCCCC3)n2)ccn1

>  <VALUE UNIT>
%

>  <Percent Effect>
91.97

$$$$

Query string: What does the record list as Percent Effect for "COc1ncc(-c2c(C#N)c(N)nc3c2CCc2[nH]ccc2-3)cn1" ?
Result string: -13.65

Query string: Would you kindly share the measured Percent Effect for "CC(=O)Nn1c(C)cc(CN2CCC(c3ccncc3)CC2)c1C" ?
Result string: -4.141

Query string: Which Percent Effect value belongs to "O=C(O)C(F)(F)F.O=C1CO[C@@H]2CN(CC3CC3)C[C@H]2N1Cc1cccc(F)c1" ?
Result string: 2.959

Query string: Which Percent Effect is reported for this compound? Cc1csc(C2CCCCN2C(=O)c2cc(C3CC3)[nH]n2)n1 (stereo not drawn)
Result string: 105.1

Query string: Request the reported Percent Effect associated with "CC(C)c1nc(O)c2nnn(C[C@H]3CCCN(Cc4cccs4)C3)c2n1"
Result string: 127.4

Query string: Entry "O=C1CO[C@H]2CN(S(=O)(=O)c3ccccc3)C[C@H]2N1Cc1ccccc1" : reported Percent Effect = ?
Result string: -0.9845

Query string: Quick one: Percent Effect of "CN1CCCN(c2nccc(-c3c[nH]c4ccc(Br)cc34)n2)CC1" ?
Result string: 88.95

###

# Percent Effect per record follows
tested on: Wolbachia pipientis; test: Anti-Wolbachia Cell-Based Screen; format: functional; parameters: scale not given: in the data most compounds retested in dose-response had high values; details: 5 µM
In all, about 48,000 compounds went through this assay and about 13,000 (27%) showed an effect of 50% or more. The list shows a part of the results.
// return numeric value only (unit: %, not printed)

>  <COMPOUND>
Cc1nn(C)c2c(N(C)Cc3ccco3)nc(C3CC3)nc12

>  <TARGET OF ASSAY>
Wolbachia pipientis

>  <VALUE UNIT>
%

>  <EXPERIMENTAL RESULT>
91.93

$$$$

Query string: Fill in the blank: the reported Percent Effect of "CC(C)N(C)S(=O)(=O)N(C)Cc1ccc2c(c1)OCO2" is ____.
Result string: -1.448

Query string: # Percent Effect lookup, item "O=C(c1cc[nH]n1)N1CCc2ccc(S(=O)(=O)N3CCOCC3)cc2C1"
Result string: 111.1

Query string: Percent Effect for O=C(c1cccc2c1OCCO2)N1CCCC(n2cccn2)C1 (stereo not given) ?
Result string: 108.1

Query string: Recorded Percent Effect of "FC(F)Sc1ccc(NCc2nnc(C3CC3)o2)cc1" , please.
Result string: -0.3922

###

tested on: Wolbachia pipientis; assay: Anti-Wolbachia Cell-Based Screen; assay type: functional; parameters: scale not given: in the data most compounds retested in dose-response had high values; conditions: 5 µM
The campaign covered roughly 48,000 compounds. About 13,000 (27%) showed an effect of 50% or more. The list shows a part of the results.
REPORTED METRIC: Percent Effect (%)
Write the number in % without appending the unit.

>  <COMPOUND>
CCCc1nc(C)cc(NCCc2nnc(N)s2)n1

>  <VALUE UNIT>
%

>  <Percent Effect>
113

$$$$
>  <COMPOUND>
CC(C)n1nc(CN2CCOCC2)c2c1CN(Cc1ccsc1)C2.O=C(O)C(F)(F)F.O=C(O)C(F)(F)F

>  <VALUE UNIT>
%

>  <Percent Effect>
-3.193

$$$$
>  <COMPOUND>
O=c1[nH]c(-c2ccncc2)ncc1-c1ccnc(NC2CC2)n1

>  <VALUE UNIT>
%

>  <Percent Effect>
114.3

$$$$
>  <COMPOUND>
CC(C)NC(=O)c1ccc(NC(=O)NC(C)c2ccccn2)cc1 (stereo unspecified)

>  <VALUE UNIT>
%

>  <Percent Effect>
-7.886

$$$$
>  <COMPOUND>
Cc1cc(NCCc2c(C)n[nH]c2C)nc(-c2cccnc2)n1

>  <VALUE UNIT>
%

>  <Percent Effect>
90.29

$$$$

Query string: # get_value(readout='Percent Effect', item= "O=C(COCc1nc(-c2ccncc2)no1)NC1CCCCC1" )
Result string: -10.3

Query string: Recorded Percent Effect for CC(=O)c1ccc(NC(=O)NC(C(=O)N(C)C)C(C)C)cc1 (stereo unspecified) , please?
Result string: -8.422

Query string: State the recorded Percent Effect for this entry: CNC(=O)c1ccc(NC(=O)NC(C)c2cc(C)oc2C)cc1 (stereo unspecified)
Result string: -7.2

Query string: Return reported Percent Effect; argument: "CC(=O)c1ccc(NC(=O)N[C@H](C(=O)O)C(C)C)cc1"
Result string: 99.56

Query string: For the compound "O=C(NC[C@H]1C[C@@H]2CN(C(=O)c3ccno3)C[C@@H]2O1)C1CCC1" , what Percent Effect is on record?
Result string: 2.338

Query string: Form field: reported Percent Effect of CCCc1nc(C)cc(NC(C)Cc2cnccn2)n1 (stereo unspecified)
Result string: 10.99

Query string: Return reported Percent Effect; argument: "CCCn1ncc(-c2ccnc(NC3CC(C)(C)NC(C)(C)C3)n2)c1C"
Result string: 10.1

Query string: Any idea what Percent Effect was measured for CC(C)C(NC(=O)Nc1ccc(F)cc1)C(=O)N(C)C (stereo unspecified) ?
Result string: 92.8

Query string: What value of measured Percent Effect is listed for "Cc1cccc(C(=O)N2C[C@@H]3[C@H](CC(=O)NC(C)C)[C@@H]3C2)n1.O=C(O)C(F)(F)F" ?
Result string: -21.16

Origin of the recorded values: ChEMBL document CHEMBL3988442
